test system: HCCLM3; test: cells; conditions: Homo sapiens, HCCLM3, 72 h, read-out: INH
Description: Antiproliferative activity against human HCCLM3 cells assessed as inhibition of cell proliferation at 10 uM measured after 72 hrs by MTT assay relative to control
Quick rule: inhibition at 10 µM of at least 70% means Condition met, below that means Condition not met.

{"columns": ["molecule", "qualitative-label"],
 "data": [
  ["Cc1ccccc1Cc1noc(C2CCN(Cc3cccc(C#N)c3)CC2)n1", "Condition not met"],
  ["Fc1ccc(Cc2noc(C3CCN(Cc4ccc(F)cc4)CC3)n2)cc1", "Condition not met"],
  ["Fc1ccc(Cc2noc([C@H]3CCCN3Cc3ccc(F)cc3)n2)cc1", "Condition not met"],
  ["N#Cc1cccc(CN2CCC(c3nc(Cc4cccc(C(F)(F)F)c4)no3)CC2)c1", "Condition met"],
  ["N#Cc1cccc(CN2CCC(c3nc(Cc4ccc(Br)c(F)c4)no3)CC2)c1", "Condition met"],
  ["O=C(c1ccc(F)cc1)N1CC(c2nc(Cc3ccc(F)cc3)no2)C1", "Condition not met"]
]}
